Tested on: TE-12;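 note: growth inhibition of TE-12 cells, read out by a cell viability assay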
Assay: cells
Type: functional, cell-based, Homo sapiens
Conditions: Homo sapiens, TE-12
Description: SANGER: Inhibition of human TE-12 cell growth in a cell viability assay.
metric name: IC50 (nM)
Unit nM implied. Number only.

Ask: Using the record for CC(C)C[C@H](NC(=O)[C@H](Cc1ccccc1)NC(=O)c1cnccn1)B(O)O , report its IC50.
Result: 4.25

Ask: Using the record for COc1cc(N2CCC(N3CCN(C)CC3)CC2)ccc1Nc1ncc(Cl)c(Nc2ccccc2S(=O)(=O)C(C)C)n1 , report its IC50.
Result: 533

Ask: Using the record for C=CC(=O)N1CCCC(Nc2nc(Nc3ccc(N(C)C(=O)CC)cc3)nc3[nH]cnc23)C1 (centres undefined) , report its IC50.
Result: 2350

Ask: Using the record for C/C(=C\c1csc(C)n1)[C@@H]1C[C@@H]2O[C@]2(C)CCC[C@H](C)[C@H](O)[C@@H](C)C(=O)C(C)(C)[C@@H](O)CC(=O)O1 , report its IC50.
Result: 5.47
